Tested on: UACC-62
Assay: NCI tumour cell line growth inhibition, 48 h
The source made the active and inactive calls. Cut-off read from the data, not from the text of the source: active = GI50 up to about 1.1 µM and inactive = higher.
Outcomes: active, inactive

compound: O=C(Cc1cc(=O)oc2cc(O)ccc12)N/N=C/c1ccc(N(CCCl)CCCl)cc1
category: inactive
--
compound: CCOC(=O)CC[C@H](N)C(=O)N[C@@H](Cc1ccc(N(CCCl)CCCl)cc1)C(=O)OCC
category: active
--
compound: COc1ccc(C(=O)/C=C/c2ccc(OCC(=N)N)cc2)cc1
category: inactive
--
compound: CN1CC(=O)N2Cc3ccccc3-n3cccc3C2C1 (centres undefined)
category: inactive
--
compound: C[Si](C)(c1ccc(C(=O)O)cc1)c1ccc(C(=O)O)cc1
category: inactive
--
compound: O=C1[C@H]2ON(c3ccccc3)C(c3ccccc3F)[C@H]2C(=O)N1c1ccc(Cc2ccc(N3C(=O)[C@@H]4ON(c5ccccc5)C(c5ccccc5F)[C@@H]4C3=O)cc2)cc1 (some centres undefined)
category: inactive
--
compound: Nc1ccc(Oc2ccc(C34CC5CC6C3CC3CC4C(C5)C6(c4ccc(Oc5ccc(N)c(O)c5)cc4)C3)cc2)cc1O
category: inactive
--
compound: O=C(O)C(SC(=S)c1ccc(C(=S)SC(C(=O)O)c2ccccc2)cc1)c1ccccc1 (centres undefined)
category: inactive
--
compound: CCCCNC(=S)c1ccc(OC(=O)Nc2ccc(Cl)cc2)cc1
category: active

* * *

Tested on: SK-MEL-5
Assay: NCI tumour cell line growth inhibition, 48 h
Calls of active or inactive are those of the source. Cut-off read from the data, not from the text of the source: active = GI50 up to about 1.1 µM and inactive = higher.
Outcome codes: true (1) (active), false (0) (inactive)

compound: C[C@]12CCC(=O)C=C1C[C@@H](O)[C@@H]1[C@@H]2CC[C@@]2(C)[C@H]1CC[C@]2(C)O
category: false (0)

compound: CCOc1cc2c(cnc3c4cc(OC)c(OC)cc4ccc23)cc1OC
category: false (0)

compound: CN1C2CCC1CC(CCOC(c1ccc(F)cc1)c1ccc(F)cc1)C2 (stereo not given)
category: false (0)

compound: CCCC(=O)N[C@H]1CCc2cc(OC)c(OC)c(OC)c2-c2ccc(SC)c(=O)cc21
category: true (1)

compound: Cc1oc2nc1C(=O)NCc1nc(cs1)C(=O)N[C@H](C(C)C)c1nc(cs1)C(=O)N[C@H]2C
category: false (0)

compound: CCc1ccccc1-n1c2nc(=O)n(C)c(=O)c-2nc2ccccc21
category: false (0)

compound: O=C1N/C(=N/N=C\C(O)C(O)C(O)C(O)CO)N/C1=C/c1ccc(Cl)cc1 (stereo not given)
category: false (0)

compound: CCCN(CCCCC(NC(C)=O)C(=O)NCc1ccccc1)C(=O)NCCCl (stereo not given)
category: false (0)

compound: O=C1/C(=N\n2c(S)nnc2-c2ccncc2)c2cc(Cl)ccc2N1CN1CCCCC1
category: false (0)

compound: COC(=O)/C=C1\C(=O)Nc2ccc(Br)cc21
category: false (0)

* * *

Listing of recorded GI50 by entry.
Test system: SK-MEL-28
Assay: NCI tumour cell line growth inhibition, 48 h
Activity calls are given as the source filed them. No stated cut-off is given here; in the data, active = GI50 up to about 1.1 µM and inactive = higher.
parameter: GI50

molecule: O=C(Nc1ccc(Cl)cc1C(F)(F)F)C(=O)Nn1c(S)nc2ccccc2c1=O
parameter: GI50
result: > 100 µM (inactive)

molecule: COc1cc([C@@H]2c3cc4c(cc3[C@@H](OC3OC5CO[C@@H](c6cccs6)OC5C(O)C3O)[C@H]3COC(=O)[C@H]23)OCO4)cc(OC)c1O (stereo not given in full)
parameter: GI50
result: 1.66 µM (inactive)

molecule: COC(=O)/C=C1\C(=O)Nc2ccc(Br)cc21
parameter: GI50
result: 2.68 µM (inactive)

molecule: O=C1NC(O)n2c(=O)[nH]c(=O)n21 (stereo not given)
parameter: GI50
result: > 100 µM (inactive)

molecule: O=C1NC(=O)C(c2c[nH]c3cc(Br)ccc23)=C1c1cnc[nH]1
parameter: GI50
result: 62.1 µM (inactive)
